Target: AGTR2 (Homo sapiens, UniProt P50052)
Construct: purchased Promega (in-house HiBiT-GPCR construct library, NanoBRET)
Sequence (P50052 whole entry): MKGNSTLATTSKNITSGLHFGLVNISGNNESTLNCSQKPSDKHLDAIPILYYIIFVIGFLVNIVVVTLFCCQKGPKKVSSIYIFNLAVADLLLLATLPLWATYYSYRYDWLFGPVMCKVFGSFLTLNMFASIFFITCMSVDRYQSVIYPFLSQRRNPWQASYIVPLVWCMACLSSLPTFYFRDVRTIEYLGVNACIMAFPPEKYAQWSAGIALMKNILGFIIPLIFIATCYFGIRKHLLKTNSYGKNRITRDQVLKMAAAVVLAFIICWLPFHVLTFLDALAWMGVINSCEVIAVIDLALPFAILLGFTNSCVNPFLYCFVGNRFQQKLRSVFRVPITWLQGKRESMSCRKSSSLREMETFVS
Test: NanoBRET screen HiBiT-AGTR2 in HEK293
Assay type: binding
Conditions: AGTR2; tracer 1μM
Parameter NanoBRET Fold Response: see the listing below.

{"columns": ["compound", "NanoBRET Fold Response"],
 "data": [
  ["N#CN=C(NCCCOc1cccc(CN2CCCCC2)c1)NCCNC(=O)CCOCCOCCOCCOCCNC(=O)CCc1ccc2n1[B-](F)(F)[N+]1=C(c3ccc[nH]3)C=CC1=C2 [Aminopotentidine-2-NB590]", 1.04],
  ["O=C(CCOCCOCCOCCOCCNC(=O)CCc1ccc2n1[B-](F)(F)[N+]1=C(c3ccc[nH]3)C=CC1=C2)NCCCN1CCN(C2=Nc3ccccc3Oc3ccc(Cl)cc32)CC1 [Loxapine-a-2-NB590]", 1.01],
  ["CC(C)N(CC[C@H](c1ccccc1)c1cc(CCNC(=O)CCOCCOCCOCCOCCNC(=O)CCc2ccc3n2[B-](F)(F)[N+]2=C(c4ccc[nH]4)C=CC2=C3)ccc1O)C(C)C [Tolterodine-2-NB590]", 1.07]
]}

###

Recorded measurements of NanoBRET Fold Response, one per entry
Target: RXFP2 (Homo sapiens, UniProt Q8WXD0)
Construct: purchased Promega (in-house HiBiT-GPCR construct library, NanoBRET)
Sequence (Q8WXD0 whole entry): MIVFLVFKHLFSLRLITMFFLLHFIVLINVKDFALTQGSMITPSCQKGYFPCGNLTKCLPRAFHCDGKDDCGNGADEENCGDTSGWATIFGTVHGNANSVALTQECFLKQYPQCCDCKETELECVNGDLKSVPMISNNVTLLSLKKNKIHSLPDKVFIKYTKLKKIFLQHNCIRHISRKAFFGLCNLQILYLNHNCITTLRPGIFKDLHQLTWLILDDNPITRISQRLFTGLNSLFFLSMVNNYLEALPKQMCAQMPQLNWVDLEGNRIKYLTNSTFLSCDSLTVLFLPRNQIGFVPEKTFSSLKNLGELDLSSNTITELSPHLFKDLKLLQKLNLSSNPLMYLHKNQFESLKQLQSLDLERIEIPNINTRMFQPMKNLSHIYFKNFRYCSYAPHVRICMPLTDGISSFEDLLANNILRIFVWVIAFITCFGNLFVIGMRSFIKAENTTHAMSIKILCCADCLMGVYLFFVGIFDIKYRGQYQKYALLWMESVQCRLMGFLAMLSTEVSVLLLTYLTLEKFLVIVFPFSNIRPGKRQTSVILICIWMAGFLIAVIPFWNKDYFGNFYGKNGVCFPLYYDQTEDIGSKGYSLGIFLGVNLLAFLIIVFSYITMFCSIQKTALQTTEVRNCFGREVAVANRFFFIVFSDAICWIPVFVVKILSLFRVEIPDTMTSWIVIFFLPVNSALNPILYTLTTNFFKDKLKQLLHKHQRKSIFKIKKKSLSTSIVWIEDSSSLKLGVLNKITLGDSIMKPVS
Assay: NanoBRET screen HiBiT-RXFP2 in HEK293
Assay type: binding
Details: RXFP2; tracer 1μM
measurement.type: NanoBRET Fold Response

{"columns": ["compound", "reported.measurement"],
 "data": [
  ["N#CN=C(NCCCOc1cccc(CN2CCCCC2)c1)NCCNC(=O)CCOCCOCCOCCOCCNC(=O)CCc1ccc2n1[B-](F)(F)[N+]1=C(c3ccc[nH]3)C=CC1=C2 [Aminopotentidine-2-NB590]", 0.83],
  ["O=C(CCOCCOCCOCCOCCNC(=O)CCc1ccc2n1[B-](F)(F)[N+]1=C(c3ccc[nH]3)C=CC1=C2)NCCCN1CCN(C2=Nc3ccccc3Oc3ccc(Cl)cc32)CC1 [Loxapine-a-2-NB590]", 0.64],
  ["Cc1cc2c(s1)Nc1ccccc1N=C2N1CCN(CCCNC(=O)CCOCCOCCOCCOCCNC(=O)CCc2ccc3n2[B-](F)(F)[N+]2=C(c4ccc[nH]4)C=CC2=C3)CC1 [Olanzapine-a-2-NB590]", 0.46],
  ["O=C(CCc1ccc2n1[B-](F)(F)[N+]1=C(c3ccc[nH]3)C=CC1=C2)NCCOCCOCCNC(=O)OCCOCCN1CCN(C2=Nc3ccccc3Sc3ccccc32)CC1 [Quetiapine-a-2-NB590]", 1.01],
  ["CC(C)N(CC[C@H](c1ccccc1)c1cc(CCNC(=O)CCOCCOCCOCCOCCNC(=O)CCc2ccc3n2[B-](F)(F)[N+]2=C(c4ccc[nH]4)C=CC2=C3)ccc1O)C(C)C [Tolterodine-2-NB590]", 1.30],
  ["O=C(CCc1ccc2n1[B-](F)(F)[N+]1=C(c3ccc[nH]3)C=CC1=C2)NCc1ccc(C(=O)NCCOCCC(=O)N[C@@H]2CC[C@@]3(O)[C@H]4Cc5ccc(O)c6c5[C@@]3(CCN4CC3CC3)[C@H]2O6)cc1 [Naltrexone-3-NB590]", 0.72],
  ["CC(C)N(CC[C@H](c1ccccc1)c1cc(CCNC(=O)c2ccc(CNC(=O)CCc3ccc4n3[B-](F)(F)[N+]3=C(c5ccc[nH]5)C=CC3=C4)cc2)ccc1O)C(C)C [Tolterodine-BZ-NB590]", 0.83],
  ["COc1ccccc1N1CCN(CCCCN2C(=O)c3ccc(CNC(=O)CCOCCNC(=O)c4ccc(CNC(=O)CCc5ccc6n5[B-](F)(F)[N+]5=C(c7ccc[nH]7)C=CC5=C6)cc4)cc3C2=O)CC1 [NAN-190-3-NB590]", 0.89],
  ["CCCn1c(=O)c2[nH]c(-c3ccc(OCC(=O)NCCNC(=O)CCOCCNC(=O)c4ccc(CNC(=O)CCc5ccc6n5[B-](F)(F)[N+]5=C(c7ccc[nH]7)C=CC5=C6)cc4)cc3)nc2n(CCC)c1=O [XAC-3-NB590]", 1.28],
  ["COc1ccccc1N1CCN(CCCCN2C(=O)c3ccc(CNC(=O)CCOCCOCCOCCOCCNC(=O)CCc4ccc5n4[B-](F)(F)[N+]4=C(c6ccc[nH]6)C=CC4=C5)cc3C2=O)CC1 [NAN-190-2-NB590]", 1.17]
]}
